biological target: Ubiquitin carboxyl-terminal hydrolase 2 (Homo sapiens); experiment: Ub-rhodamine 110 based assay for inhibitors Ubiquitin-specific Protease USP2a; conditions: USP2a Ub-rhodamine110 cleavage, fluorescence; series mostly up to 38.3 µM; note: nearly all actives have a fitted effect of over 50% in size
Results filed as inconclusive are left out. The source made the active and inactive calls. Calls come from the whole dose curve; as a rule, active = well fitted inhibition curve with a large enough effect; inconclusive = small, poorly fitted or top-dose-only effect, or effect the other way; inactive = flat fitted curve, though single readings scatter.
Please answer using one outcome listed in active, inactive

Example results:
MOLECULE	ASSIGNED CLASS
Cc1ccc([C@H]2C(C(=O)O)=CC[C@@H](c3ccc(Cl)cc3)N2S(=O)(=O)c2ccc(C)cc2)cc1	active
O=C1NC(=Nc2ccccc2)S/C1=C\C=C\c1ccco1	active
C[C@@H]1CN([C@H](C)CO)C(=O)Cc2cc(NS(=O)(=O)c3ccc(Cl)cc3)ccc2O[C@H]1CN(C)Cc1ccc(C(F)(F)F)cc1	active
CCCCCCCCCCOC(=O)Cn1c(COc2ccc(OC)cc2)[n+](C)c2ccccc21	inactive

**Query** Name the outcome recorded for COC(=O)c1[nH]c(=O)c2ccccc2c1OCc1ccccc1 in the assay.
**Result** inactive

**Query** Name the outcome recorded for C[C@](N)(Cc1ccc(O)c(O)c1)C(=O)O in the assay.
**Result** inactive

**Query** Name the outcome recorded for CCC(C)NC(=O)C1CN(S(=O)(=O)c2ccccc2)CCN1S(=O)(=O)c1ccccc1 (stereo not given) in the assay.
**Result** inactive

**Query** Name the outcome recorded for O=C(Nc1ccc(N2CCCC2)cc1)c1ccc(Br)cc1 in the assay.
**Result** active

**Query** Name the outcome recorded for O=C(CCNc1cccc(Cl)c1)c1ccco1 in the assay.
**Result** inactive

**Query** Name the outcome recorded for CN(C)c1ccc(-c2ccccc2)nn1 in the assay.
**Result** inactive

----------
target: Ubiquitin carboxyl-terminal hydrolase 2 (Homo sapiens) (UniProt O75604); experiment: Ub-rhodamine 110 based assay for inhibitors Ubiquitin-specific Protease USP2a; conditions: USP2a Ub-rhodamine110 cleavage, fluorescence; series mostly up to 38.3 µM; note: nearly all actives have a fitted effect of over 50% in size
Sequence (O75604 whole entry, looked up): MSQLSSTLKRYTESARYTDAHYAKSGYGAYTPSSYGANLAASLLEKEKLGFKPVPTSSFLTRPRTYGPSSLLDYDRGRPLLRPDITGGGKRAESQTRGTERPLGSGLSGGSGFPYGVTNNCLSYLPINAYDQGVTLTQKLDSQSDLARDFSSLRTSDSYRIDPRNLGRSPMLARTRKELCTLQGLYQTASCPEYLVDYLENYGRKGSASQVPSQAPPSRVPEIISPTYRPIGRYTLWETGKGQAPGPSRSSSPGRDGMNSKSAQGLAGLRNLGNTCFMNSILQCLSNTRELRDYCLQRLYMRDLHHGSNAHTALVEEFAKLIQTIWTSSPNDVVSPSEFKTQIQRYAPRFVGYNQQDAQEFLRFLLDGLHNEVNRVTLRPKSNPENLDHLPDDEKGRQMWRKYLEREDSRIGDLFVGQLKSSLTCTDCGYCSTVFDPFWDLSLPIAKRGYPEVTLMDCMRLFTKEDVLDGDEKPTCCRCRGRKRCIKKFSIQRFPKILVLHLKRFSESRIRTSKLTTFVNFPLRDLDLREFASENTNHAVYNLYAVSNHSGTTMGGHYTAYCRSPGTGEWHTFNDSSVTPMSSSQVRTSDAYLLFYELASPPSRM
Results filed as inconclusive are left out. Active and inactive are the calls of the source. The call rests on the fitted dose curve; in most records, active means well fitted inhibition curve with a large enough effect; inconclusive means small, poorly fitted or top-dose-only effect, or effect the other way; inactive means flat fitted curve, though single readings scatter.
Please answer using one outcome listed in active, inactive

MOLECULE	ASSIGNED CLASS
CSC1=NCCN1C(=O)Cc1ccc(F)cc1	inactive
O=C(NN1C(=O)/C(=C/C=C/c2ccco2)SC1=S)c1ccncc1	active
COC(=O)C1CCN(C(=O)c2cc(-c3ccco3)nc3ccccc23)CC1	active
O=C(CSc1nnc(SCc2ccccc2)s1)N/N=C/c1c[nH]c2ccccc12	active
CCCOc1ccc(N2C(=O)CC(NCCc3ccc(S(N)(=O)=O)cc3)C2=O)cc1 (stereo not given)	inactive

**Query** Name the outcome recorded for COc1ccc(Cc2nnc(NC(=O)Cc3cccs3)s2)cc1 in the assay.
**Result** active

**Query** Name the outcome recorded for Cc1ccc(C(=O)NCc2ccc3c(c2)OCO3)cc1N1CCCC1=O in the assay.
**Result** inactive

----------
target: Ubiquitin carboxyl-terminal hydrolase 2 (Homo sapiens) (UniProt O75604); experiment: Ub-rhodamine 110 based assay for inhibitors Ubiquitin-specific Protease USP2a; settings: USP2a Ub-rhodamine110 cleavage, fluorescence; series mostly up to 38.3 µM; note: nearly all actives have a fitted effect of over 50% in size
Records with an inconclusive call do not appear. Activity calls are given as the source filed them. Calls follow the shape of the dose curve; as a rule, active = well fitted inhibition curve with a large enough effect; inconclusive = small, poorly fitted or top-dose-only effect, or effect the other way; inactive = flat fitted curve, though single readings scatter.
Please answer using one outcome listed in yes for active, no for inactive

Example results:
COMPOUND	SYSTEM UNDER TEST	ASSIGNED CLASS
C=C1c2cccc(O)c2C(=O)C2C(=O)[C@]3(O)C(=O)C(C(N)=O)C(=O)[C@@H](N(C)C)[C@@H]3[C@@H](O)[C@H]12 (some centres not stated)	Ubiquitin carboxyl-terminal hydrolase 2 (Homo sapiens) (UniProt O75604)	yes
COc1ccc(-c2[nH]ncc2/C=C(/C#N)C(=O)NC2CCCCC2)cc1	Ubiquitin carboxyl-terminal hydrolase 2 (Homo sapiens) (UniProt O75604)	no
COc1ccc(NC(=O)CSc2ncccc2C(=O)OC(C)C)cc1OC	Ubiquitin carboxyl-terminal hydrolase 2 (Homo sapiens) (UniProt O75604)	no

**Query** Name the outcome recorded for O=C(O)CCn1c(C2CCCCC2)nc2ccccc21 in the assay.
**Result** no

**Query** Name the outcome recorded for CCc1cc2c(=O)c(-n3cnc4ccccc43)coc2cc1O in the assay.
**Result** no

**Query** Name the outcome recorded for COC(=O)[C@@]12CCCCN1[C@H](c1ccc(-c3ccc(Cl)c(Cl)c3)cc1)[C@H]1C(=O)N(C)C(=O)[C@H]12 in the assay.
**Result** no

**Query** Name the outcome recorded for Cc1nn(CC(=O)Nc2cccc(S(N)(=O)=O)c2)c(C)c1[N+](=O)[O-] in the assay.
**Result** no

**Query** Name the outcome recorded for CCOc1cc(/C=C2\C(=O)N(c3nc(-c4ccc(Br)cc4)cs3)N=C2c2ccccc2)ccc1O in the assay.
**Result** yes

**Query** Name the outcome recorded for CCOC(=O)N1CCN(S(=O)(=O)c2ccc(C)cc2)C1c1ccc(OC)cc1 (configuration not stated) in the assay.
**Result** no

----------
biological target: Ubiquitin carboxyl-terminal hydrolase 2 (Homo sapiens) (UniProt O75604); assay: Ub-rhodamine 110 based assay for inhibitors Ubiquitin-specific Protease USP2a; settings: USP2a Ub-rhodamine110 cleavage, fluorescence; series mostly up to 38.3 µM; note: nearly all actives have a fitted effect of over 50% in size
Inconclusive results are not listed. The source made the active and inactive calls. Calls follow the shape of the dose curve; as a rule, active = well fitted inhibition curve with a large enough effect; inconclusive = small, poorly fitted or top-dose-only effect, or effect the other way; inactive = flat fitted curve, though single readings scatter.
Please answer using one outcome listed in 1 (yes) for active, 0 (no) for inactive

Example results:
COMPOUND	ASSIGNED CLASS
CC(C)(C)C1C=C(Sc2ccccc2)C(=O)O1 (centres undefined)	0 (no)
C=CC[C@H](CC(=O)N[C@H](CO)Cc1ccccc1)C(=O)N[C@H](COC(=O)[C@@H](CC=C)CC(=O)OC(C)(C)C)Cc1c[nH]c2ccccc12	0 (no)
COC(=O)c1c(NC(=O)c2cccnc2)sc(C)c1C	0 (no)

**Query** Name the outcome recorded for Cc1ccc(S(=O)(=O)N2CCOCC2)cc1NC(=O)CN1C(=O)NC(C)(c2ccc(Cl)cc2Cl)C1=O (centres undefined) in the assay.
**Result** 0 (no)

**Query** Name the outcome recorded for O=C(CC(C(=O)O)C1CCCO1)NCCc1ccc2c(c1)OCO2 (centres undefined) in the assay.
**Result** 0 (no)

**Query** Name the outcome recorded for Cc1ccc(N(CC(=O)Nc2ccc(S(=O)(=O)N3CCOCC3)cc2)S(C)(=O)=O)cc1C in the assay.
**Result** 0 (no)

**Query** Name the outcome recorded for COc1ccc(NC(=O)CN(Cc2ccccc2)S(C)(=O)=O)cc1 in the assay.
**Result** 0 (no)

**Query** Name the outcome recorded for O=C(CSc1nc2ccccc2s1)NCCCN1CCOCC1 in the assay.
**Result** 0 (no)

**Query** Name the outcome recorded for Cc1ccc(C(=O)NCCCc2ccccc2)s1 in the assay.
**Result** 0 (no)

**Query** Name the outcome recorded for CCOC(=O)c1sc(NC(=O)Nc2ccccc2)cc1C in the assay.
**Result** 0 (no)

**Query** Name the outcome recorded for Cc1ccc(C(=O)Oc2coc(CSc3nnc(NC(=O)c4cccs4)s3)cc2=O)cc1 in the assay.
**Result** 1 (yes)

----------
target: Ubiquitin carboxyl-terminal hydrolase 2 (Homo sapiens); experiment: Ub-rhodamine 110 based assay for inhibitors Ubiquitin-specific Protease USP2a; conditions: USP2a Ub-rhodamine110 cleavage, fluorescence; series mostly up to 38.3 µM; note: nearly all actives have a fitted effect of over 50% in size; note: potency is the fitted concentration of half-maximal effect
Inconclusive results are not listed. Active and inactive are the calls of the source. The call rests on the fitted dose curve; in most records, active means well fitted inhibition curve with a large enough effect; inconclusive means small, poorly fitted or top-dose-only effect, or effect the other way; inactive means flat fitted curve, though single readings scatter.
READOUT KIND: Potency

Solved cases (5 shown):
COMPOUND	Potency
COc1ccc(N(C(=O)C(C)C)S(=O)(=O)c2ccc(Cl)cc2)cc1	inactive
Cc1nc2n(n1)CC(O)CS2 (centres undefined)	inactive
COCc1c(C(=O)OCC(=O)c2c(N)n(CC(C)C)c(=O)n(C)c2=O)oc2ccccc12	inactive
COc1ccc(OC)c(Nc2ccc(Nc3cc(OC)ccc3OC)nn2)c1	inactive
O=c1c2c3nc4ccccc4nc3n(Cc3ccccc3)c2ncn1Cc1ccco1	11.2 µM (active)

According to the records, this compound Cc1ccc(SCC(=O)NCC(C)C)cc1 displays Potency of inactive

According to the records, this compound Cc1ccc(C(=O)C(=S)N2CCOCC2)cc1 displays Potency of inactive

According to the records, this compound COc1ccc(OCC(=O)Nc2ccccc2OC)cc1 displays Potency of inactive

According to the records, this compound COC(=O)c1[nH]c2ccc(C)cc2c1NC(=O)CN1CCCc2ccccc21 displays Potency of inactive

According to the records, this compound N#Cc1c(NC(=O)CSc2ncnc3sccc23)oc(-c2ccco2)c1-c1ccco1 displays Potency of 3.98 µM (active)

According to the records, this compound Cc1cc(SCC(=O)Nc2ccccc2)nc(C)n1 displays Potency of inactive

According to the records, this compound Cc1ccc(/C=C/S(=O)(=O)N2CCC(C(=O)O)CC2)cc1 displays Potency of inactive

----------
molecular target: Ubiquitin carboxyl-terminal hydrolase 2 (Homo sapiens); test: Ub-rhodamine 110 based assay for inhibitors Ubiquitin-specific Protease USP2a; details: USP2a Ub-rhodamine110 cleavage, fluorescence; series mostly up to 38.3 µM; note: nearly all actives have a fitted effect of over 50% in size
Records with an inconclusive call do not appear. The source made the active and inactive calls. The call rests on the fitted dose curve; in most records, active means well fitted inhibition curve with a large enough effect; inconclusive means small, poorly fitted or top-dose-only effect, or effect the other way; inactive means flat fitted curve, though single readings scatter.
Please answer using one outcome listed in class 1 = active, class 0 = inactive

COMPOUND	SYSTEM UNDER TEST	ASSIGNED CLASS
COc1ccccc1N1CCN(c2cc(C)nc3nc(C)nn23)CC1	Ubiquitin carboxyl-terminal hydrolase 2 (Homo sapiens)	class 0
CCCn1c(NC(=O)c2ccc(Br)cc2)nc2ccccc21	Ubiquitin carboxyl-terminal hydrolase 2 (Homo sapiens)	class 0

**Query** Name the outcome recorded for CC1CCCCN1CCNC(=O)c1cnn2ccccc12 (centres undefined) in the assay.
**Result** class 0

**Query** Name the outcome recorded for COc1ccc(-c2noc(CSc3nnc(Cc4ccccc4)n3-c3ccc(Cl)cc3)n2)cc1 in the assay.
**Result** class 0

**Query** Name the outcome recorded for COc1cc2c(C(=O)N3CCN(c4cccc(Cl)c4)CC3)cn(CC(C)C)c(=O)c2cc1OC in the assay.
**Result** class 0

**Query** Name the outcome recorded for CCOC(=O)CN1C(=O)S/C(=C/c2ccc(O)c([N+](=O)[O-])c2)C1=O in the assay.
**Result** class 0

Each recorded value in this set is attributed to PubChem BioAssay AID493170.
